# Tested on: COLO858
# assay comment: relative viability (cell count relative to DMSO-treated control) (fraction of DMSO control); higher = more viable cells / less drug effect
# reported conditions: 48 h; 0.0316 µM
For each record, write down the corresponding relative viability.

Illustrative cases are given below, each with its answer.
CN(C)CCOc1ccc(-c2nc(-c3ccncc3)c(-c3ccc4c(c3)CC/C4=N\O)[nH]2)cc1 :: 0.929
CCCS(=O)(=O)Nc1ccc(F)c(C(=O)c2c[nH]c3ncc(Cl)cc23)c1F :: 1.06
Cn1cnc2c(F)c(Nc3ccc(Br)cc3Cl)c(C(=O)NOCCO)cc21 :: 1.06
Cc1ccc(NC(=O)c2cccc(C(C)(C)C#N)c2)cc1Nc1ccc2ncn(C)c(=O)c2c1 :: 0.778

Now turn to the next compound.
Lab book: relative viability of `CCCS(=O)(=O)Nc1ccc(F)c(C(=O)c2c[nH]c3ncc(-c4ccc(Cl)cc4)cc23)c1F` noted as 1

---

# Test system: LOXIMVI
# assay comment: apoptotic fraction of cells (caspase-3 NucView488 positive); higher = more apoptosis
# reported conditions: 48 h; 3.16 µM
readout name: apoptotic fraction of cells
Give bare numbers.

Batch request: apoptotic fraction of cells for each of the following molecules.
1. CCCS(=O)(=O)Nc1ccc(F)c(C(=O)c2c[nH]c3ncc(Cl)cc23)c1F [PLX4720]
2. CCCS(=O)(=O)Nc1ccc(F)c(C(=O)c2c[nH]c3ncc(-c4ccc(Cl)cc4)cc23)c1F [Vemurafenib]
3. Cn1cnc2c(F)c(Nc3ccc(Br)cc3Cl)c(C(=O)NOCCO)cc21 [Selumetinib]
4. CN(C)CCOc1ccc(-c2nc(-c3ccncc3)c(-c3ccc4c(c3)CC/C4=N\O)[nH]2)cc1

result:
0.113
0.0897
0.0597
0.0453

For this molecule ( Cc1ccc(NC(=O)c2cccc(C(C)(C)C#N)c2)cc1Nc1ccc2ncn(C)c(=O)c2c1 [AZ628] ), measured apoptotic fraction of cells is 0.163

---

# Test system: WM1552C
# assay comment: relative viability (cell count relative to DMSO-treated control) (fraction of DMSO control); higher = more viable cells / less drug effect
# reported conditions: 48 h; 0.316 µM
readout name: relative viability
One number for each entry.

Use these answered entries as a reference point.
CCCS(=O)(=O)Nc1ccc(F)c(C(=O)c2c[nH]c3ncc(-c4ccc(Cl)cc4)cc23)c1F :: 1.06
CN(C)CCOc1ccc(-c2nc(-c3ccncc3)c(-c3ccc4c(c3)CC/C4=N\O)[nH]2)cc1 :: 0.954
Cn1cnc2c(F)c(Nc3ccc(Br)cc3Cl)c(C(=O)NOCCO)cc21 :: 0.761

Would you be so kind as to report relative viability for each listed record?
1. CCCS(=O)(=O)Nc1ccc(F)c(C(=O)c2c[nH]c3ncc(Cl)cc23)c1F
2. Cc1ccc(NC(=O)c2cccc(C(C)(C)C#N)c2)cc1Nc1ccc2ncn(C)c(=O)c2c1

result:
[0.839, 0.665]

---

For each record, write down the corresponding apoptotic fraction of cells.
# System: MZ7MEL
# assay comment: apoptotic fraction of cells (caspase-3 NucView488 positive); higher = more apoptosis
# reported conditions: 48 h; 0.0316 µM
Give bare numbers.

CCCS(=O)(=O)Nc1ccc(F)c(C(=O)c2c[nH]c3ncc(Cl)cc23)c1F [PLX4720] :: 0.0129
Cn1cnc2c(F)c(Nc3ccc(Br)cc3Cl)c(C(=O)NOCCO)cc21 [Selumetinib] :: 0.0142
CCCS(=O)(=O)Nc1ccc(F)c(C(=O)c2c[nH]c3ncc(-c4ccc(Cl)cc4)cc23)c1F [Vemurafenib] :: 0.0196
CN(C)CCOc1ccc(-c2nc(-c3ccncc3)c(-c3ccc4c(c3)CC/C4=N\O)[nH]2)cc1 :: 0.0145

Query molecule follows.
The reported value for Cc1ccc(NC(=O)c2cccc(C(C)(C)C#N)c2)cc1Nc1ccc2ncn(C)c(=O)c2c1 [AZ628] in terms of apoptotic fraction of cells is 0.0173

---

Field: apoptotic fraction of cells. Provide a value for each of the compounds that follow.
# Tested on: MZ7MEL
# assay comment: apoptotic fraction of cells (caspase-3 NucView488 positive); higher = more apoptosis
# reported conditions: 24 h; 0.01 µM
One number for each entry.

Example entries and their recorded answers appear below.
CN(C)CCOc1ccc(-c2nc(-c3ccncc3)c(-c3ccc4c(c3)CC/C4=N\O)[nH]2)cc1 :: 0.0117
Cc1ccc(NC(=O)c2cccc(C(C)(C)C#N)c2)cc1Nc1ccc2ncn(C)c(=O)c2c1 :: 0.0129
Cn1cnc2c(F)c(Nc3ccc(Br)cc3Cl)c(C(=O)NOCCO)cc21 :: 0.0133

For every listed record, write down its apoptotic fraction of cells.
1. CCCS(=O)(=O)Nc1ccc(F)c(C(=O)c2c[nH]c3ncc(Cl)cc23)c1F
2. CCCS(=O)(=O)Nc1ccc(F)c(C(=O)c2c[nH]c3ncc(-c4ccc(Cl)cc4)cc23)c1F

result:
1. 0.0082
2. 0.0131

---

For each record, write down the corresponding relative viability.
# Test system: RVH421
# assay comment: relative viability (cell count relative to DMSO-treated control) (fraction of DMSO control); higher = more viable cells / less drug effect
# reported conditions: 48 h; 0.01 µM
Give bare numbers.

Cn1cnc2c(F)c(Nc3ccc(Br)cc3Cl)c(C(=O)NOCCO)cc21 :: 0.884
CCCS(=O)(=O)Nc1ccc(F)c(C(=O)c2c[nH]c3ncc(Cl)cc23)c1F :: 0.881

relative viability recorded for this molecule, `CCCS(=O)(=O)Nc1ccc(F)c(C(=O)c2c[nH]c3ncc(-c4ccc(Cl)cc4)cc23)c1F` , is 0.907

---

# Test system: WM115
# assay comment: relative viability (cell count relative to DMSO-treated control) (fraction of DMSO control); higher = more viable cells / less drug effect
# reported conditions: 72 h; 0.0316 µM
readout name: relative viability
One number for each entry.

Known relative viability results, listed for orientation:
CN(C)CCOc1ccc(-c2nc(-c3ccncc3)c(-c3ccc4c(c3)CC/C4=N\O)[nH]2)cc1 :: 0.889
Cn1cnc2c(F)c(Nc3ccc(Br)cc3Cl)c(C(=O)NOCCO)cc21 :: 0.918

# context switch: different molecule, same relative viability
The molecule `CCCS(=O)(=O)Nc1ccc(F)c(C(=O)c2c[nH]c3ncc(-c4ccc(Cl)cc4)cc23)c1F` , when measured on WM115, yielded relative viability of 1.05
